# target or test system: Solute carrier family 2, facilitated glucose transporter member 1 (Homo sapiens) (UniProt P11166)
# Sequence (P11166 whole entry): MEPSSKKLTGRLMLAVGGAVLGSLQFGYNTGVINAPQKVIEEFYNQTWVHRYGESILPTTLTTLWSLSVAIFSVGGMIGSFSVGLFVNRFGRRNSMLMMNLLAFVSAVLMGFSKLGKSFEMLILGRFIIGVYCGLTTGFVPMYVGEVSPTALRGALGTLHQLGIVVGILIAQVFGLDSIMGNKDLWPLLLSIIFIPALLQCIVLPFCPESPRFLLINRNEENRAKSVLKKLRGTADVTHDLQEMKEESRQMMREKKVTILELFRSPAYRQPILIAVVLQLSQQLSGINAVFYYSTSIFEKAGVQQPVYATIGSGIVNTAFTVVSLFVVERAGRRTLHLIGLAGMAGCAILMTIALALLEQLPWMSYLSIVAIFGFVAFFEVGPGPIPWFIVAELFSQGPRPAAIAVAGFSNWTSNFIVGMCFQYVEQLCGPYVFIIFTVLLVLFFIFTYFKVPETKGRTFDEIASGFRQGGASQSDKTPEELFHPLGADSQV
# assay: ST_JUDE_LEISH: Cytotoxicity at 2uM final concentration against transgenic Leishmania Mexicana promastigotes LmGLUT1 that are glucose transport deficient and complemented with the human glucose transporter GLUT1. Activity is measured by DNA content using SYBR green in vitro
# Type: functional
reported property: inhibition

compound | readout value
CC(=O)N[C@@H]1c2cc(C(C)=O)ccc2OC(C)(C)[C@@H]1O | -0.93%
COc1cc(Nc2ncc3c(C)nc(-c4cc5ccccc5[nH]4)n3n2)cc(OC)c1OC | 4.94%
COc1cc(/C=C/C(=O)NC2CCC(N3CCC(c4ccccc4C)CC3)CC2)cc(OC)c1 (centres undefined) | -0.75%
CN1CCCN(c2ccnc3cc4c(cc23)N(C(=O)c2ccc(Cl)c(Cl)c2)CC4)CC1 | 0.8%
Ic1cc(Nc2ncnc3ccsc23)ccc1OCc1ccccc1 | 0.8%

Now look at this one.
// N=C1NC(c2ccccc2)(c2ccccc2)C(=O)N1C1CCCCC1 : inhibition value = 3.46%
